Assay: Selectivity ratio of IC50 for electric eel AChE to IC50 for horse serum BChE
Use 3 as the dividing line for Ratio IC50, with the line itself on the rule met side and lower values as rule not met.

Prompt: For this molecule, is measured Ratio IC50 3 or higher? CCCCN(CCCC)CCCCCCCCOc1ccc(CN(CC)CC)cc1
Completion: rule met

Prompt: Could you please find out whether CCN(CC)Cc1ccc(OCCN2CCCCC2)cc1 has Ratio IC50 that meets 3 or exceeds it?
Completion: rule not met

Prompt: hey, is Ratio IC50 for this one >= 3? CCN(CC)CCCCOc1ccc(CN(CC)CC)cc1
Completion: rule met

Prompt: Is the recorded value of Ratio IC50 equal to or greater than 3 for this molecule? CCN(CC)Cc1ccc(OCCCCCCN2CCCCC2)cc1
Completion: rule not met

Prompt: Hello, I need to know if CCN(CC)CCCCCCOc1ccc(CN(CC)CC)cc1 has measured Ratio IC50 not below 3. Thanks!
Completion: rule not met

Prompt: # check: Ratio IC50 of CCN(CC)Cc1ccc(OCCCCCCCCN2CCCC2)cc1 is greater than or equal to 3
Completion: rule met

Prompt: Can CCN(CC)Cc1ccc(OCCN2CCN(C)CC2)cc1 be said to have Ratio IC50 at or above 3?
Completion: rule not met

Prompt: Is reported Ratio IC50 greater than or equal to 3 here: CCCCN(CCCC)CCCCCCCCCCOc1ccc(CN(CC)CC)cc1
Completion: rule met

Prompt: Tell me whether Ratio IC50 is at least 3 here: CCN1CCN(CCCCCOc2ccc(CN(CC)CC)cc2)CC1
Completion: rule not met

Prompt: Answer whether Ratio IC50 of CCCN(CCC)CCCCOc1ccc(CN(CC)CC)cc1 is greater than or equal to 3.
Completion: rule not met

Prompt: Threshold query (Ratio IC50 >= 3) on CCCN(CCC)CCCCCCCCCCOc1ccc(CN(CC)CC)cc1
Completion: rule met

Prompt: Entry CCN(CC)Cc1ccc(OCCCCCCN2CCN(C)CC2)cc1 : is its Ratio IC50 no less than 3?
Completion: rule not met

Prompt: Is Ratio IC50 at least 3? Consider CCN(CC)Cc1ccc(OCCCCCCCCN2CCN(C)CC2)cc1
Completion: rule met

Prompt: Hi, just wondering whether CCN1CCN(CCCCCCCCOc2ccc(CN(CC)CC)cc2)CC1 shows Ratio IC50 of 3 or higher.
Completion: rule met

Prompt: Item CCN(CC)Cc1ccc(OCCCCN2CCCC2)cc1 with Ratio IC50 of 3 or above?
Completion: rule not met

Prompt: Record CCCN(CCC)CCCCCCCCOc1ccc(CN(CC)CC)cc1 ; criterion: Ratio IC50 no lower than 3. Met?
Completion: rule met

Prompt: Dear colleague, could you confirm whether CCN1CCN(CCCCCCOc2ccc(CN(CC)CC)cc2)CC1 has Ratio IC50 at or above 3?
Completion: rule not met

Prompt: Check this molecule for Ratio IC50 at or above 3: CCN(CC)Cc1ccc(OCCCCCCCCN2CCCCC2)cc1
Completion: rule met

Prompt: # check: Ratio IC50 of CCCCN(CCCC)CCCCOc1ccc(CN(CC)CC)cc1 is greater than or equal to 3
Completion: rule met

Prompt: Textbook exercise: given the entry CCN(CC)Cc1ccc(OCCCCN2CCCCC2)cc1 , state whether its Ratio IC50 is greater than or equal to 3.
Completion: rule met

Prompt: Check this molecule for Ratio IC50 at or above 3: CCN1CCN(CCCCCCCCCCOc2ccc(CN(CC)CC)cc2)CC1
Completion: rule met

Prompt: Decide: is the reported value of Ratio IC50 for CCN(CC)Cc1ccc(OCCCCCCN2CCCC2)cc1 equal to or greater than 3?
Completion: rule not met

Prompt: Is the recorded value of Ratio IC50 equal to or greater than 3 for this molecule? CCN(CC)Cc1ccc(OCCCCN2CCN(C)CC2)cc1
Completion: rule not met

Prompt: Does CCN(CC)Cc1ccc(OCCCCCN2CCN(C)CC2)cc1 have a reported Ratio IC50 of at least 3?
Completion: rule not met

Prompt: Could you verify whether the entry CCN(CC)CCCCCCCCCCOc1ccc(CN(CC)CC)cc1 shows Ratio IC50 of no less than 3?
Completion: rule met
